Reported growth AUC values follow for various molecules
System: Odoribacter splanchnicus
Assay: growth AUC relative to DMSO control (median of replicates) (fraction); higher = more growth (less inhibition), active = hit call of the paper
Settings: 20 µM; 24 h

{"MOLECULE": "CCNc1nc(Cl)nc(N(CC)CC)n1", "TGT": "Odoribacter splanchnicus", "growth AUC": 1.04}
{"MOLECULE": "CCNc1nc(N)nc(Cl)n1", "TGT": "Odoribacter splanchnicus", "growth AUC": 1.02}
{"MOLECULE": "c1ccc2c(c1)Cc1ccccc1-2", "TGT": "Odoribacter splanchnicus", "growth AUC": 1.05}
{"MOLECULE": "c1ccc(Nc2ccccc2)cc1", "TGT": "Odoribacter splanchnicus", "growth AUC": 1.03}
{"MOLECULE": "O.O=C(Nc1ccc([N+](=O)[O-])cc1Cl)c1cc(Cl)ccc1O", "TGT": "Odoribacter splanchnicus", "growth AUC": 0.039}
{"MOLECULE": "CC(C)(NC(=O)NCc1ccccc1Cl)c1ccccc1", "TGT": "Odoribacter splanchnicus", "growth AUC": 1.05}
{"MOLECULE": "CNc1nc(NC(C)C)nc(SC)n1", "TGT": "Odoribacter splanchnicus", "growth AUC": 0.984}
{"MOLECULE": "C#CCN(C)c1c(C#N)cnn1-c1nn2c(c1Cl)CCCC2", "TGT": "Odoribacter splanchnicus", "growth AUC": 1.05}
{"MOLECULE": "CCCCCCCC(=O)Oc1c(Br)cc(C#N)cc1Br", "TGT": "Odoribacter splanchnicus", "growth AUC": 1.12}
{"MOLECULE": "COC1CCC2(CC1)NC(=O)C(c1cc(C)ccc1C)=C2OC1OC(CO)C(O)C(O)C1O (stereo not drawn)", "TGT": "Odoribacter splanchnicus", "growth AUC": 0.994}
{"MOLECULE": "Oc1ccccc1O", "TGT": "Odoribacter splanchnicus", "growth AUC": 1.08}
{"MOLECULE": "CC(C)(C)C(O)/C(=C\\c1ccc(Cl)cc1)n1cncn1 (stereo not drawn)", "TGT": "Odoribacter splanchnicus", "growth AUC": 0.976}
{"MOLECULE": "CCCCOCCOCCOCc1cc2c(cc1CCC)OCO2", "TGT": "Odoribacter splanchnicus", "growth AUC": 1.07}

Where do the numbers come from? From the supplement of paper PMC12669032.
